Assay Target: TCF4-CTNNB1 complex (Homo sapiens, UniProt P35222+Q9NQB0)
Sequence (P35222 whole entry): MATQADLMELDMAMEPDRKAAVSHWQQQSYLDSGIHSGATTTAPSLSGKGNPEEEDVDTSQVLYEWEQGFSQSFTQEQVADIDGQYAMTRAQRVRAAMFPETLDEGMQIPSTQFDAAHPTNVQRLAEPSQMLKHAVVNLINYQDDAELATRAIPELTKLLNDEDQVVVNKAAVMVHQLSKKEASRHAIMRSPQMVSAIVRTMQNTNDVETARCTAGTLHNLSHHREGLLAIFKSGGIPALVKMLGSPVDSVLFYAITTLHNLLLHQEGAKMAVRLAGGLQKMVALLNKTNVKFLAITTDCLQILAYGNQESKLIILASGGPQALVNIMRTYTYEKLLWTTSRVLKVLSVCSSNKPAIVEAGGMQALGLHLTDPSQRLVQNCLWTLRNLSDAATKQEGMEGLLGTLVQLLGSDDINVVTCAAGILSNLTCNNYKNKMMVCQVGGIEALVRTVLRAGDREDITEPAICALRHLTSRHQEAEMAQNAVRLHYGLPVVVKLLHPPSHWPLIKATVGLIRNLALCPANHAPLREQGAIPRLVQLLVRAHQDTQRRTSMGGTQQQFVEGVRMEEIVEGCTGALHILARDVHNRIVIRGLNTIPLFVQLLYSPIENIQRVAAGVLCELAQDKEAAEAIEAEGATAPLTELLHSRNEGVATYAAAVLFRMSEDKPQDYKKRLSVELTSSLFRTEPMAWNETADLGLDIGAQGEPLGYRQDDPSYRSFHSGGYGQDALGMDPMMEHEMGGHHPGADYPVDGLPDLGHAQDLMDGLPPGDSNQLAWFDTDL
Sequence (P15884 whole entry, further chain): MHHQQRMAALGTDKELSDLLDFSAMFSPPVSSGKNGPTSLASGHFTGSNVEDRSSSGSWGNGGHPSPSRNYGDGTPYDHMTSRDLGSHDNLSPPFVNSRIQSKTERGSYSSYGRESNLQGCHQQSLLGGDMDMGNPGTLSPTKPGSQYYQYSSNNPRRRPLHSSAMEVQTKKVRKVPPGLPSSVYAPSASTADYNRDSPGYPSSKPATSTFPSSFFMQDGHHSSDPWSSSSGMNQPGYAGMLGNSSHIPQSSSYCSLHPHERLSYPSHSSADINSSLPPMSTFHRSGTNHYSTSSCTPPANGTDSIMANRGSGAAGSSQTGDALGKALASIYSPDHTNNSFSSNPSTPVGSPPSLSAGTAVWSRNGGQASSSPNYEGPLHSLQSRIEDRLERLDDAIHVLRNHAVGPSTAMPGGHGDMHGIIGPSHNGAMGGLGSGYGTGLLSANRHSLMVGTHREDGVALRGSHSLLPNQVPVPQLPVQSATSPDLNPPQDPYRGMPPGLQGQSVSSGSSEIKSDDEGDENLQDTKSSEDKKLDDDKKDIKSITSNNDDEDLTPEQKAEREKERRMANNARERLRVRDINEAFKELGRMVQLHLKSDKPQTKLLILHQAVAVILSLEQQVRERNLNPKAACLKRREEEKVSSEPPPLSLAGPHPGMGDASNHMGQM
Protocol Details: Inhibition of human GST tagged Tcf4/beta catenin interaction after 2 hrs using fluorescent AP Attophos substrate by ELISA analysis
Attribute Measured: IC50 (nM)
# unit: nM | format: bare number

Molecule	Attribute Measured	Number
COc1c(CC(C)OC(=O)c2c(C)cc(O)cc2O)c2c3c(CC(C)OC(=O)c4c(C)cc(O)cc4O)c(OC)c(=O)c4c(O)cc(OC)c(c5c(OC)cc(O)c(c1=O)c52)c43 (centres undefined)	IC50	4100

Dear colleague, please send me the reported IC50 for COC(=O)c1c(C)cc2c(c1O)[C@@]1(O)C(=O)c3cc4c(c(O)c3C(=O)[C@]1(OC)[C@H](O)C2)C(=O)C=C(NC1O[C@H](C)[C@@H](OC)[C@H](O)[C@@H]1OC)C4=O (some centres undefined) when you can. 640

Dear colleague, please send me the reported IC50 for COc1c(CC(C)OC(=O)Oc2ccc(O)cc2)c2c3c(CC(C)OC(=O)c4ccccc4)c(OC)c(=O)c4c(O)cc(OC)c(c5c(OC)cc(O)c(c1=O)c52)c43 (centres undefined) when you can. 3200

Dear colleague, please send me the reported IC50 for "CCCC(=O)c1cc2c(c(O)c1C)C(=O)C(=O)c1c(O)cccc1-2" when you can. 2400
